Ki for Apoptosis regulator Bcl-2 (Homo sapiens, UniProt P10415), merged from several publications.

These solved cases illustrate the format of a correct answer.
Molecule: COc1c(CN2O[C@@H](CO)[C@@H]([C@H](C)O)[C@H]2C(=O)N[C@H]2C[C@H]3C[C@@H]([C@@H]2C)C3(C)C)cccc1-c1cc(C(=O)NCCc2ccccc2)cc(N(C)C)c1
Meas value: < 1 nM

Molecule: CC(O)C1C(CO)ON(Cc2cccc(CNC(CC3CCCCC3)CN(C)C)c2)C1C(=O)NC1CC2CC(C1C)C2(C)C (centres unmarked)
Meas value: < 800 nM

Molecule: CC(O)C1C(CO)ON(Cc2cccc(CNC(CCc3ccccc3)CN(C)C)c2)C1C(=O)NC1CC2CC(C1C)C2(C)C (centres unmarked)
Meas value: < 800 nM

Molecule: C[C@@H]1[C@@H](NC(=O)[C@@H]2[C@H]([C@H](C)O)[C@H](CO)ON2Cc2cccc(-c3cccc(C(=O)N[C@@H]4CCN(C)C4)c3)c2)C[C@H]2C[C@@H]1C2(C)C
Meas value: < 800 nM

// query Ki value for entry CCOC(=O)c1c(C)oc2c1c(C(c1ccncc1)N1CCN(C)CC1)c(O)c1ccccc12 (centres unmarked)
16700 nM

What value of Ki has been reported for the following molecule? Cc1c(S(C)(=O)=O)c(-c2cc(F)cc(N3CCN(c4ccc(NS(=O)(=O)c5ccc(N[C@H](CCN6CCC(C(=O)O)CC6)CSc6ccccc6)c(S(=O)(=O)C(F)(F)F)c5)cc4)CC3)c2)c(-c2ccc(Cl)cc2)n1C(C)C
0.451 nM

Ki lookup needed for C[C@H](O)[C@@H]1[C@H](CO)ON(Cc2cccc(-c3ccc(NCCN4CCOCC4)cc3)c2)[C@@H]1C(=O)NC1CC2C[C@@H]([C@@H]1C)C2(C)C (some centres unmarked) , thanks.
< 800 nM

May I ask what Ki has been recorded for CNC(=O)c1cc(-c2cccc(CN3O[C@@H](CNC(=O)CCC(=O)O)[C@@H]([C@H](C)O)[C@H]3C(=O)N[C@H]3C[C@H]4C[C@@H]([C@@H]3C)C4(C)C)c2OC)cc(N(C)C)c1 ?
5 to 9 nM

* * *

We begin with Ki values for Apoptosis regulator Bcl-2 (Homo sapiens, UniProt P10415), as collected from the published literature.

// solved cases for Ki follow
Compound: CC(C)C(CN(C)C)NC(=O)c1cccc(CN2OC(CO)C(C(C)O)C2C(=O)NC2CC3CC(C2C)C3(C)C)c1 (centres unmarked)
Subject of test: Apoptosis regulator Bcl-2 (Homo sapiens, UniProt P10415)
Ki: < 800 nM
//
Compound: CCOC(=O)c1c(C)oc2c1c(C(c1ccncc1)N1CCOCC1)c(O)c1ccccc12 (centres unmarked)
Subject of test: Apoptosis regulator Bcl-2 (Homo sapiens, UniProt P10415)
Ki: > 30000 nM
//
Compound: CCN(CC)CCN(CCN(CC)CC)C(=O)c1ccc(-c2cccc(CN3O[C@@H](CO)[C@@H]([C@H](C)O)[C@H]3C(=O)N[C@H]3C[C@H]4C[C@@H]([C@@H]3C)C4(C)C)c2)cc1
Subject of test: Apoptosis regulator Bcl-2 (Homo sapiens, UniProt P10415)
Ki: < 800 nM
//
Compound: COC[C@@H](Cc1ccccc1)NC(=O)c1cc(-c2cccc(CN3O[C@@H](CO)[C@@H]([C@H](C)O)[C@H]3C(=O)N[C@H]3C[C@H]4C[C@@H]([C@@H]3C)C4(C)C)c2OC)cc(N(C)C)c1
Subject of test: Apoptosis regulator Bcl-2 (Homo sapiens, UniProt P10415)
Ki: 5 to 9 nM

// next item, Ki requested
Record lookup: for Apoptosis regulator Bcl-2 (Homo sapiens, UniProt P10415), what Ki belongs to CNC(=O)c1cc(-c2cccc(CN3O[C@@H](CNCc4ccccc4)[C@@H]([C@H](C)O)[C@H]3C(=O)N[C@H]3C[C@H]4C[C@@H]([C@@H]3C)C4(C)C)c2OC)cc(N(C)C)c1 ?
> 9 nM

* * *

Reported Ki against Apoptosis regulator Bcl-2 (Homo sapiens), gathered from multiple publications, appears below.

Solved entries:
Compound: CC(O)C1C(CO)ON(Cc2cccc(CNC(CN(C)C)CC(C)(C)C)c2)C1C(=O)NC1CC2CC(C1C)C2(C)C (centres unmarked)
Ki: < 800 nM

Compound: CC1(C)CC(c2ccc(Cl)cc2)=C(CN2CCN(c3ccc(C(=O)NS(=O)(=O)c4ccc(NCC5CCOCC5)c([N+](=O)[O-])c4)c(Oc4cnc5[nH]ccc5c4)c3)CC2)CO1
Ki: < 0.01 nM

Compound: COc1ccc(S(N)(=O)=O)cc1C(=O)NCc1cccc(CN(Cc2ccc(-c3ccccc3)cc2)S(=O)(=O)c2cc(Cl)cc(Cl)c2O)c1
Ki: 153 nM

Compound: CNC(=O)c1cc(-c2cccc(CN3O[C@@H](CNC(=O)Nc4ccccc4)[C@@H]([C@H](C)O)[C@H]3C(=O)N[C@H]3C[C@H]4C[C@@H]([C@@H]3C)C4(C)C)c2OC)cc(N(C)C)c1
Ki: > 9 nM

Compound: COc1c(CN2O[C@@H](CO)[C@@H]([C@H](C)O)[C@H]2C(=O)N[C@H]2C[C@H]3CC([C@@H]2C)C3(C)C)cccc1-c1cc(C(=O)N[C@@H](Cc2ccccc2)CN(C)C)cc(N2CCC[C@@H]2CO)c1
Ki: < 1 nM

Missing value: Ki, Apoptosis regulator Bcl-2 (Homo sapiens), entry COc1c(CN2O[C@@H](CN)[C@@H]([C@H](C)O)[C@H]2C(=O)N[C@H]2C[C@H]3C[C@@H]([C@@H]2C)C3(C)C)cccc1-c1cc(C(=O)N(C)C)cc(N(C)C)c1 . Fill in?
5 to 9 nM

* * *

Ok so here's the combined literature set: pKi for Apoptosis regulator Bcl-2 (Homo sapiens, UniProt P10415).
pKi: −log10 of the molar value.

Solved entries:
Compound: C[C@H](O)[C@@H]1[C@H](CO)ON(Cc2cccc(CN(CCN(C)C)Cc3ccccc3)c2)[C@@H]1C(=O)NCCCCc1ccccc1
Subject of test: Apoptosis regulator Bcl-2 (Homo sapiens, UniProt P10415)
pKi: 5.22 to 6.10

Compound: COc1c(CN2O[C@@H](CO)[C@@H]([C@H](C)O)[C@H]2C(=O)N[C@H]2C[C@H]3C[C@@H]([C@@H]2C)C3(C)C)cccc1-c1cc(C(=O)N[C@@H](CC(C)C)CN(C)C)cc([N+](=O)[O-])c1
Subject of test: Apoptosis regulator Bcl-2 (Homo sapiens, UniProt P10415)
pKi: > 9.00

Compound: Cc1ccc(CN(CCN(C)C)Cc2cccc(CN3OC(CO)C(C(C)O)C3C(=O)NC3CC4CC(C3C)C4(C)C)c2)cc1 (stereo not shown)
Subject of test: Apoptosis regulator Bcl-2 (Homo sapiens, UniProt P10415)
pKi: > 6.10

Compound: Cc1c(C(=O)O)c(-c2cccc(N3CCN(c4ccc(NS(=O)(=O)c5ccc(N[C@H](CCN6CCC(O)CC6)CSc6ccccc6)c(S(=O)(=O)C(F)(F)F)c5)cc4)CC3)c2)c(-c2ccc(Cl)cc2)n1C(C)C
Subject of test: Apoptosis regulator Bcl-2 (Homo sapiens, UniProt P10415)
pKi: 8.47

Compound: O=C(NCCCO)c1cc(Cl)c(O)c(S(=O)(=O)N(Cc2ccc(F)cc2)Cc2cccc(-c3ccc(Cl)cc3)c2)c1
Subject of test: Apoptosis regulator Bcl-2 (Homo sapiens, UniProt P10415)
pKi: 5.91

What value of pKi has been recorded for this entry: CC(C)C[C@@H](CN(C)C)N(Cc1ccccc1)Cc1cccc(CN2O[C@@H](CO)[C@@H]([C@H](C)O)[C@H]2C(=O)NCCCNC(=O)OC(C)(C)C)c1
4.30 to 5.22

GET /values?readout=pKi&item= CS(=O)(=O)c1ccc(CN(Cc2cccc(CNS(=O)(=O)c3cc(Cl)cc(Cl)c3O)c2)S(=O)(=O)c2cc(Cl)cc(Cl)c2O)cc1
6.83

Form field: reported pKi of C[C@@H](O)[C@H]1[C@@H](CO)ON(Cc2cccc(C#CCCCCl)c2)[C@H]1C(=O)NCCCN(C)c1ccccc1
4.30 to 5.22

Please look up its pKi: CC(O)C1C(CO)ON(Cc2cccc(CN(CCN(C)C)Cc3cc4ccccc4o3)c2)C1C(=O)NC1CC2CC(C1C)C2(C)C (stereo not shown)
> 6.10

* * *

Let's look at some Ki data for UniProt:P10415 that I collected from the literature.

Examples with answers:
Compound: CC(C)CC(CN(C)C)N(Cc1cccc(CN2OC(CO)C(C(C)O)C2C(=O)NC2CC3CC(C2C)C3(C)C)c1)Cc1ccccc1C(F)(F)F (centres unmarked)
Subject of test: UniProt:P10415
Meas value: < 800 nM
//
Compound: CNC(=O)c1cc(-c2cccc(CN3O[C@@H](CN)[C@@H]([C@H](C)OC(=O)NCCN(C)C)[C@H]3C(=O)N[C@H]3C[C@H]4C[C@@H]([C@@H]3C)C4(C)C)c2OC)cc(N(C)C)c1
Subject of test: UniProt:P10415
Meas value: > 9 nM
//
Compound: COc1c(CN2O[C@@H](CO)[C@@H]([C@H](C)O)[C@H]2C(=O)N[C@H]2C[C@H]3C[C@@H]([C@@H]2C)C3(C)C)cccc1-c1cccc(C(=O)N[C@H](CN(C)C)C(C)C)c1
Subject of test: UniProt:P10415
Meas value: < 800 nM
//
Compound: C[C@@H]1[C@@H](NC(=O)[C@@H]2[C@H]([C@H](C)O)[C@H](CO)ON2Cc2cccc(NC(=O)N[C@H](CC3CCCCC3)CN(C)C)c2)C[C@H]2C[C@@H]1C2(C)C
Subject of test: UniProt:P10415
Meas value: < 800 nM
//
Compound: O=C(NS(=O)(=O)c1ccc(N[C@@H](CSc2ccccc2)C[C@@H]2CCCN2)c(S(=O)(=O)C(F)(F)F)c1)c1ccc(N2CCC([C@@H](O)c3ccccc3-c3ccc(C(F)(F)F)cc3)CC2)cc1
Subject of test: UniProt:P10415
Meas value: 0.04 nM
//
Compound: CNC(=O)O[C@@H](C)[C@@H]1[C@H](CN)ON(Cc2cccc(-c3cc(C(=O)NC)cc(N(C)C)c3)c2OC)[C@@H]1C(=O)N[C@H]1C[C@H]2C[C@@H]([C@@H]1C)C2(C)C
Subject of test: UniProt:P10415
Meas value: > 9 nM
//
Compound: O=S(=O)(c1cccc(CN(Cc2ccc(F)cc2)S(=O)(=O)c2cc(Cl)cc(Cl)c2O)c1)N(Cc1ccc(F)cc1)Cc1cc(Cl)cc(Cl)c1
Subject of test: UniProt:P10415
Meas value: 60 nM
//
Compound: CC1(C)CCC(CN2CCN(c3ccc(C(=O)NS(=O)(=O)c4ccc(OC[C@H]5CCN(C6COC6)C5)c([N+](=O)[O-])c4)c(Oc4cnc5[nH]ccc5c4)c3)CC2)=C(c2ccc(Cl)cc2)C1
Subject of test: UniProt:P10415
Meas value: < 0.01 nM
//
Compound: C[C@H](O)[C@@H]1[C@H](CO)ON(Cc2cccc(CN(CCN(C)C)Cc3ccccc3)c2)[C@@H]1C(=O)N[C@H](C)c1ccc2ccccc2c1
Subject of test: UniProt:P10415
Meas value: 800 to 6000 nM
//
Compound: CC(O)C1C(CO)ON(Cc2cccc(CN3CC(c4ccccc4)CC3CN(C)C)c2)C1C(=O)NC1CC2CC(C1C)C2(C)C (centres unmarked)
Subject of test: UniProt:P10415
Meas value: < 800 nM

Look up Ki for this compound: CC(C)C[C@@H](CN(C)C)N(Cc1ccccc1)Cc1cccc(CN2O[C@@H](CO)[C@@H]([C@H](C)O)[C@H]2C(=O)NC(C)C)c1
6000 to 50000 nM
